Molecular target: estrogen receptor (Homo sapiens, UniProt P03372)
Sequence (P03372 1-595): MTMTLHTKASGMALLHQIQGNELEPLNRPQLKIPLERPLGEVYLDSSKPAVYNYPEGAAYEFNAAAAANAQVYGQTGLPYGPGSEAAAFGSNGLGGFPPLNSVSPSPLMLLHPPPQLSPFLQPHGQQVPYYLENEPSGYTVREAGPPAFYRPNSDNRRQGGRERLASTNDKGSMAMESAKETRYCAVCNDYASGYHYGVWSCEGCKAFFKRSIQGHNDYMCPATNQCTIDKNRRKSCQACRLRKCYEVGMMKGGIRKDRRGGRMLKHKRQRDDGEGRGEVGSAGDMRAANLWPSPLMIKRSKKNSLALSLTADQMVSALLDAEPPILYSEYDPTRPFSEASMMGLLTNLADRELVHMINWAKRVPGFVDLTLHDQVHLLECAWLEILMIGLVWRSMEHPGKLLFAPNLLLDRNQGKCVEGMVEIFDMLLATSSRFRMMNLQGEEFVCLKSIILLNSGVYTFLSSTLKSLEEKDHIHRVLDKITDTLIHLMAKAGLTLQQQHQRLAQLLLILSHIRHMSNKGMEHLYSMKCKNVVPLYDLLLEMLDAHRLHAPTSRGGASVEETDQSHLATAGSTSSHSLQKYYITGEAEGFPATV
pIC50: −log10 of the molar value.
Measure: pIC50

Fill in: pIC50 on estrogen receptor (Homo sapiens, UniProt P03372), entry CCN(CC)C(=O)/C=C/c1ccc(C(=O)c2c(-c3ccc(O)cc3)sc3cc(O)ccc23)cc1
7.00

a: CN(C)C(=O)/C=C/c1ccc(C(=O)c2c(-c3ccc(O)cc3)sc3cc(O)ccc23)cc1
b: O=C(c1ccc(/C=C/C(=O)N2CCCCC2)cc1)c1c(-c2ccc(O)cc2)sc2cc(O)ccc12
Consider a and b . Which of these has its pIC50 at a higher number? Give the label under which the chosen entry appears.
b
(b: 7.15, a: 6.82)
